Cited source: PubChem BioAssay AID1159580

test: chemical genetic growth profiling, strain panel (AID 1159580);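 note: tested at 20 µM; growth read once vehicle control cultures reached saturation at 30 °C; lower values mean less growth of the strain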; settings: S. cerevisiae deletion strains, growth OD, locus YJL095W, strain BCK1, hits give low values
About 2,000 (36%) of roughly 5,500 compounds were called active. Roughly 18% stayed inconclusive and do not appear here. Some of the results follow.
Binning of normalized growth into classes: LOW = under 0.9, MEDIUM = from 0.9 up to 1, HIGH = 1 and over

Exam item: assign COc1ccc(C2CC(c3ccccc3)=Nc3ccccc3S2)cc1OC (stereo not drawn) to the correct category. MEDIUM

Can you check "N#Cc1c(Br)cnn1Cc1cc(C(F)(F)F)cc(C(F)(F)F)c1" next? MEDIUM

Can you check C=CCCCCCCCCCCCC(O)CC(O)CO (stereo not drawn) next? MEDIUM

Can you check "C#Cc1cccc(N=Cc2cc(Cl)cc(Br)c2O)c1" next? LOW

Can you check "COc1ccc2c(=O)cc(-c3ccccc3OC)oc2c1" next? LOW

Can you check "CC(C)CSc1nnc(CSCc2nc(-c3ccc(Cl)cc3)cs2)n1C" next? MEDIUM

Can you check "CCC/C=C/C=C/[C@@H]1C[C@@H](O)[C@@H](O)C(=O)[C@H]1C=O" next? HIGH

Can you check CC(C)(O)[C@@H]1CC[C@](C)([C@H]2[C@@H](O)C[C@@]3(C)C4C[C@H](O[C@@H]5O[C@H](CO)[C@@H](O)[C@H](O)[C@H]5O)C5C(C)(C)[C@@H](O[C@@H]6OC[C@@H](O)[C@H](O)[C@H]6O)CC[C@@]56C[C@@]46CC[C@]23C)O1 (stereo partly drawn) next? HIGH

Can you check C=CCCCCCCCCCCCC(O)CC(O)CO (stereo not drawn) (tested in a mixture with another compound) next? LOW

Can you check Cc1cc(=O)c2c(O)c3c(cc2o1)OCC(C)CC3 (stereo not drawn) next? LOW

Can you check CCC(C)COC(=O)/C=C/c1ccc(N=Cc2ccc(OC)cc2)cc1 (stereo not drawn) next? LOW

Can you check "CC(C)=CCc1c2c(c(O)c3c(=O)c(O)c(-c4ccccc4)oc13)C=CC(C)(C)O2" next? LOW
